test: Ketoprofen plasma levels achieved by on-knee patch delivery (Example 7); type: in vivo, human; conditions: human, plasma, topical, 272 mg, Mean Ketoprofen Plasma Concentration, Two Patches simultaneously, one above each knee, applied 12 h; time point 2 hrs; N = 22
Recorded endpoint: concentration at 2 h (ng/mL)
Could you give me the number in ng/mL? Just the number is fine.

State the recorded concentration at 2 h for this entry: CC(C(=O)O)c1cccc(C(=O)c2ccccc2)c1 (stereo not shown)
7.8

* * *

experiment: Ketoprofen plasma levels achieved by on-knee patch delivery (Example 7); assay type: in vivo, human; settings: human, plasma, topical, 136 mg, Mean Ketoprofen Plasma Concentration, Single Patch; time point 28 hrs; N = 22
Recorded endpoint: concentration at 28 h (ng/mL)
Could you give me the number in ng/mL? Just the number is fine.

State the recorded concentration at 28 h for this entry: CC(C(=O)O)c1cccc(C(=O)c2ccccc2)c1 (stereo not shown)
10
